- measured.on: CD3
- Sequence (P07766 23-126): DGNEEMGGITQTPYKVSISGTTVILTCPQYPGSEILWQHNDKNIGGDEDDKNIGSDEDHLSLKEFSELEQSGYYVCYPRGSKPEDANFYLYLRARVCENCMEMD
- procedure.details: Octet, crude lysate
result.type: Kd (nM)
Return type: number; implicit unit nM.

Solved entries:
AC3407 (bispecific antibody, V domains shown) VH: EVQLLESGGGIVQPGGSLKLSCAASGFTFNTYAMNWVRQAPGKGLEWVARIRSKYNDYATYYADSVKDRFTISRDDSKNTVYLQMNNLKTEDTAVYYCVRHENFGNSYVSWFAHWGQGTLVTVSS VL: ELVVTQEPSLTVSPGGTVTLTCRSSNGAVTSSNYANWVQQKPGQAPRGLIGGTNKRAPGTPARFSGSLLGGKAALTLSGVQPEDEAVYYCALWYPNLWVFGGGTKLTVL = 7.4
AC3424 (bispecific antibody, V domains shown) VH: EVQLLESGGGIVQPGGSLKLSCAASGFTFNTYAMNWVRQAPGKGLEWVARIRSKYNNYATYYADSVKGRFTISRDDSKNTVYLQMNNLKTEDTAVYYCVRHENFGNSYVSWFAHWGQGTLVTVSS VL: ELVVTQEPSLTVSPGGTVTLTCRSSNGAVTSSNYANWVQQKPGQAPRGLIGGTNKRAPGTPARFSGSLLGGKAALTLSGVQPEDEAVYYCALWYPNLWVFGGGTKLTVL = 5.4
AC3374 (bispecific antibody, V domains shown) VH: EVQLLESGGGIVQPGGSLKLSCAASGFTFNTYAMNWVRQAPGKGLEWWARIRSKYNNYATYYADSVKDRFTISRDDSKNTVYLQMNNLKTEDTAVYYCVRHENFGNSYVSWFAHWGQGTLVTVSS VL: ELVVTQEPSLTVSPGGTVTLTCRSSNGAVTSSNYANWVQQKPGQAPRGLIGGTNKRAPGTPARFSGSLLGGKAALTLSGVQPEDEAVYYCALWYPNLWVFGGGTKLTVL = 34300
AC3404 (bispecific antibody, V domains shown) VH: EVQLLESGGGIVQPGGSLKLSCAASGFTFNTYAMNWVRQAPGKGLEWVARIRSKWNNYATYYADSVKDRFTISRDDSKNTVYLQMNNLKTEDTAVYYCVRHENFGNSYVSWFAHWGQGTLVTVSS VL: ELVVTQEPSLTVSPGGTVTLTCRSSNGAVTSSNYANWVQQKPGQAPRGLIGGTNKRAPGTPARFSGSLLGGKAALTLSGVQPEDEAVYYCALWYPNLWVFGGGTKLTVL = 10.5
AC3415 (bispecific antibody, V domains shown) VH: EVQLLESGGGIVQPGGSLKLSCAASGFTFNTYAMNWVRQAPGKGLEWVARIRSKYNNYATEYADSVKDRFTISRDDSKNTVYLQMNNLKTEDTAVYYCVRHENFGNSYVSWFAHWGQGTLVTVSS VL: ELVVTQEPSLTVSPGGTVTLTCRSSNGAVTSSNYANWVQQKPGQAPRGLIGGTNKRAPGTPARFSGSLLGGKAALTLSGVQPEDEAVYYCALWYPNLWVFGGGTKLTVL = 183

Exercise: Look up Kd for this binder: AC3398 (bispecific antibody, V domains shown) VH: EVQLLESGGGIVQPGGSLKLSCAASGFTFNTYAMNWVRQAPGKGLEWVARIRSKANNYATYYADSVKDRFTISRDDSKNTVYLQMNNLKTEDTAVYYCVRHENFGNSYVSWFAHWGQGTLVTVSS VL: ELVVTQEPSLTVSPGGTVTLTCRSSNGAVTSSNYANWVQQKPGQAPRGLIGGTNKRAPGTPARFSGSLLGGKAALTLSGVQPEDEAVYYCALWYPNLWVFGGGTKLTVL
Key: 11.5

Exercise: Ok, now AC3438 (bispecific antibody, V domains shown) VH: EVQLLESGGGIVQPGGSLKLSCAASGFTFNTYAMNWVRQAPGKGLEWVARIRSKYNNYATYYADSVKDRFTISRDDSKNTVYLQMNNLKTEDTAVYYCVRHENFGNSYVSWFAHWGQGTLVTVSS VL: ELVVTQEPSLTVSPGGTVTLTCRSSNGAVTSSNYANWVQQKPGQAPRGLIGGTNKRAPGTPARFSGSNLGGKAALTLSGVQPEDEAVYYCALWYPNLWVFGGGTKLTVL
Key: 8.3
